- System: rodent lifetime carcinogenesis bioassay, tumor incidence TD50
- TEST: carcinogenic potency in animals, long-term in vivo studies, CPDB compilation (AID 1745844)
- DETAILS: rat; strain F344/DuCrj; males; in feed; site: forestomach; lesion: squamous-cell papilloma; dosed 104 weeks; study length 104 weeks
READOUT NAME: TD50

Quick note, TD50 for `CCOC(=O)/C=C\C(=O)OCC` landed at 1070 mg/kg/day

Lab note: `Cc1ccc(O)c(O)c1` gave TD50 of 468 mg/kg/day

Query `COc1ccc(O)cc1` yields TD50 of 832 mg/kg/day

Data point: `Oc1ccccc1O` ; TD50 = 3300 mg/kg/day
